# Test system: RIVA
# experimental_details: growth inhibition by drug plus 177Lu-lilotomab satetraxetan (1 - RLU/untreated control) (fraction); higher = stronger inhibition
# condition_label: 10 nM; time (day): 4; 177Lu-lilotomab satetraxetan 0.5 ug/ml
Counter-ions that a name gives are not always drawn.
Recorded growth inhibition by drug plus 177Lu-lilotomab satetraxetan by entry
In your answer, state the number alone without any accompanying words.

- compound: "CCN(CC)CCCC(C)Nc1nc(C)cc(Nc2ccc3nc(C)cc(N)c3c2)n1 (stereo not drawn)"
  assay_system: "RIVA"
  observed_result: 0.606
- compound: "CN1CCN(CCOc2cc(OC3CCOCC3)c3c(Nc4c(Cl)ccc5c4OCO5)ncnc3c2)CC1 [Saracatinib (AZD0530)]"
  assay_system: "RIVA"
  observed_result: 0.494
- compound: "CCC(CC)CC1(C(=O)Nc2ccccc2SC(=O)C(C)C)CCCCC1"
  assay_system: "RIVA"
  observed_result: 0.541
- compound: "CC(=O)[C@]1(O)Cc2c(O)c3c(c(O)c2[C@@H](O[C@H]2C[C@H](N)[C@H](O)[C@H](C)O2)C1)C(=O)c1ccccc1C3=O [Idarubicin HCl]"
  assay_system: "RIVA"
  observed_result: 0.947
- compound: "Cn1cc(C2=C(c3ccc(Cl)cc3Cl)C(=O)NC2=O)c2ccccc21"
  assay_system: "RIVA"
  observed_result: 0.533

[Q] Can you look up growth inhibition by drug plus 177Lu-lilotomab satetraxetan on RIVA for CC1(CN2CCC(n3c(=O)[nH]c4ccccc43)CC2)OCc2ccccc2-n2cccc21 (stereo not drawn) ?
[A] 0.59

[Q] Can you look up growth inhibition by drug plus 177Lu-lilotomab satetraxetan on RIVA for CCn1c(-c2nonc2N)nc2cnc(Oc3cccc(NC(=O)c4ccc(OCCN5CCOCC5)cc4)c3)cc21 ?
[A] 0.522

[Q] Can you look up growth inhibition by drug plus 177Lu-lilotomab satetraxetan on RIVA for Cc1cc(O)c2c(c1)C(=O)c1cccc(O)c1C2=O [Chrysophanic acid (Chrysophanol)] ?
[A] 0.48

* * *

# Tested on: U-2932
# experimental_details: growth inhibition by drug plus 177Lu-lilotomab satetraxetan (1 - RLU/untreated control) (fraction); higher = stronger inhibition
# condition_label: 1000 nM; time (day): 3; 177Lu-lilotomab satetraxetan 1 ug/ml
measurement_name: growth inhibition by drug plus 177Lu-lilotomab satetraxetan
In your answer, state the number alone without any accompanying words.

The following compounds have reported results that may help.
- substance_smiles: "COc1cc2c(NC3CCN(C)CC3)nc(N3CCCN(C)CC3)nc2cc1OCCCN(C)C"
  observed_result: -0.0195
- substance_smiles: "Cc1oc(S(=O)(=O)N2CCCCC2)cc1NC(=O)Nc1ccccc1"
  observed_result: -0.0876

[Q] Could you tell me which growth inhibition by drug plus 177Lu-lilotomab satetraxetan is on file for COc1cc2nc(N3CCCN(C)CC3)nc(NC3CCN(Cc4ccccc4)CC3)c2cc1OC ?
[A] 0.133

[Q] Could you tell me which growth inhibition by drug plus 177Lu-lilotomab satetraxetan is on file for O=C1NC(=O)/C(=C\c2cccc(C(F)(F)F)c2)S1 ?
[A] -0.0652

[Q] Could you tell me which growth inhibition by drug plus 177Lu-lilotomab satetraxetan is on file for O=C(Nc1ccccc1-c1cn2c(CN3CCNCC3)csc2n1)c1cnc2ccccc2n1 ?
[A] 0.141

* * *

# Test system: U-2932
# experimental_details: growth inhibition by drug plus 177Lu-lilotomab satetraxetan (1 - RLU/untreated control) (fraction); higher = stronger inhibition
# condition_label: 10 nM; time (day): 5; 177Lu-lilotomab satetraxetan 1 ug/ml
measurement_name: growth inhibition by drug plus 177Lu-lilotomab satetraxetan
In your answer, state the number alone without any accompanying words.

- molecule: "COc1cc2c(cc1O)CC[C@@H]1[C@@H]2CC[C@]2(C)[C@@H](O)CC[C@@H]12"
  observed_result: 0.00475
- molecule: "Cc1c(CCOc2ccc(C(=O)O)cc2)c2cc(Cl)ccc2n1C(c1ccccc1)c1ccccc1"
  observed_result: 0.00779
- molecule: "COc1nc(-c2ccc3c(c2)OCO3)n(-c2ccc(NC(=O)CSc3ccccc3)cc2)n1"
  observed_result: -0.0101
- molecule: "N#Cc1c(O)c2c(-c3ccc(-c4ccccc4O)cc3)csc2[nH]c1=O"
  observed_result: 0.105
- molecule: "CC[C@@H]1C(=O)N(C)c2cnc(Nc3ccc(C(=O)NC4CCN(C)CC4)cc3OC)nc2N1C1CCCC1"
  observed_result: 0.903
- molecule: "Cc1[nH]c(/C=C2\\C(=O)Nc3ccc(S(=O)(=O)N(C)c4cccc(Cl)c4)cc32)c(C)c1C(=O)N1CCN(C)CC1"
  observed_result: 0.0856

[Q] Could you tell me which growth inhibition by drug plus 177Lu-lilotomab satetraxetan is on file for O=C1[C@H](CC[C@H](O)c2ccc(F)cc2)[C@@H](c2ccc(O)cc2)N1c1ccc(F)cc1 [Ezetimibe (Zetia)] ?
[A] 0.218

[Q] Could you tell me which growth inhibition by drug plus 177Lu-lilotomab satetraxetan is on file for CC(C)n1c(/C=C/C(O)CC(O)CC(=O)O)c(-c2ccc(F)cc2)c2ccccc21 (stereo not drawn) [Fluvastatin sodium (Lescol)] ?
[A] 0.0651

* * *

# Tested on: U-2932
# experimental_details: growth inhibition by drug plus 177Lu-lilotomab satetraxetan (1 - RLU/untreated control) (fraction); higher = stronger inhibition
# condition_label: 10 nM; time (day): 3; 177Lu-lilotomab satetraxetan 1 ug/ml
Where a name gives a salt, the structure may show the parent alone.
Mark not satisfied for growth inhibition by drug plus 177Lu-lilotomab satetraxetan values under 0.008, and satisfied for everything at or above.

Study these solved cases before continuing.
- compound: "CC(C)C[C@@H](C(=O)N[C@H](C(=O)OC1CCCC1)c1ccccc1)[C@H](O)C(=O)NO [Tosedostat (CHR2797)]"
  assay_system: "U-2932"
  class_label: "satisfied"
- compound: "O=C(NCCS(=O)(=O)c1ccc(C(F)(F)F)cn1)c1ccc(Cl)cc1"
  assay_system: "U-2932"
  class_label: "not satisfied"

[Q] Please tell me: is the compound COC(=O)Nc1ccc(-c2nc(N3CCOCC3)c3cnn(C4CCN(C(=O)OC)CC4)c3n2)cc1 at or over 0.008 in terms of growth inhibition by drug plus 177Lu-lilotomab satetraxetan?
[A] satisfied

[Q] Please tell me: is the compound Cc1cc(Nc2cc(N3CCN(C)CC3)nc(/C=C/c3ccccc3)n2)n[nH]1 at or over 0.008 in terms of growth inhibition by drug plus 177Lu-lilotomab satetraxetan?
[A] not satisfied

[Q] Please tell me: is the compound CC/C(=C(\c1ccccc1)c1ccc(OCCN(C)C)cc1)c1ccccc1 [Tamoxifen Citrate (Nolvadex)] at or over 0.008 in terms of growth inhibition by drug plus 177Lu-lilotomab satetraxetan?
[A] satisfied

* * *

# System: U-2932
# experimental_details: growth inhibition by drug plus 177Lu-lilotomab satetraxetan (1 - RLU/untreated control) (fraction); higher = stronger inhibition
# condition_label: 10 nM; time (day): 4; 177Lu-lilotomab satetraxetan 1 ug/ml
Recorded growth inhibition by drug plus 177Lu-lilotomab satetraxetan by entry
In your answer, state the number alone without any accompanying words.

The following molecules have reported results that may help.
- molecule: "C[C@]12CCC(=O)C=C1CC[C@@H]1[C@@H]2[C@@H](O)C[C@@]2(C)[C@H]1CC[C@]2(O)C(=O)CO [Hydrocortisone (Cortisol)]"
  observed_result: 0.0897
- molecule: "CN(C)c1ccccc1CN1CCCN(Cc2ccccc2N(C)C)C1c1ccncc1"
  observed_result: -0.00857
- molecule: "CC(C)(C)c1cnc(CSc2cnc(NC(=O)C3CCNCC3)s2)o1"
  observed_result: -0.0562
- molecule: "O=C(Nc1ncc([N+](=O)[O-])s1)c1ccc([N+](=O)[O-])c(Cl)c1"
  observed_result: 0.0915
- molecule: "CCC(C)(C)C(=O)O[C@H]1C[C@@H](C)C=C2C=C[C@H](C)[C@H](CC[C@@H]3C[C@@H](O)CC(=O)O3)[C@H]21 [Simvastatin (Zocor)]"
  observed_result: -0.0212
- molecule: "C[C@@H](O[C@H]1OCCN(Cc2n[nH]c(=O)[nH]2)[C@H]1c1ccc(F)cc1)c1cc(C(F)(F)F)cc(C(F)(F)F)c1 [Aprepitant (MK-0869)]"
  observed_result: -0.123
- molecule: "COc1ccc(CCN(C)CCCOc2ccc(S(=O)(=O)c3c(C(C)C)n(C)c4ccccc34)cc2)cc1OC"
  observed_result: 0.0938
- molecule: "Cc1c(C(=O)Nc2ccc(N3C[C@@H](C)O[C@@H](C)C3)nc2)cccc1-c1ccc(OC(F)(F)F)cc1"
  observed_result: 0.0196

[Q] Could you tell me which growth inhibition by drug plus 177Lu-lilotomab satetraxetan is on file for COc1c(C)c2c(c(O)c1C/C=C(\C)CCC(=O)OCCN1CCOCC1)C(=O)OC2 [Mycophenolate mofetil (CellCept)] ?
[A] 0.064

[Q] Could you tell me which growth inhibition by drug plus 177Lu-lilotomab satetraxetan is on file for CC(C)C[C@@H](C(=O)N[C@H](C(=O)OC1CCCC1)c1ccccc1)[C@H](O)C(=O)NO ?
[A] 0.0682

[Q] Could you tell me which growth inhibition by drug plus 177Lu-lilotomab satetraxetan is on file for CC(C)[C@H](C(=O)Nc1ccc(C(=O)NO)cc1)c1ccccc1 ?
[A] 0.0315

[Q] Could you tell me which growth inhibition by drug plus 177Lu-lilotomab satetraxetan is on file for CCN(CC)CCCC(C)Nc1nc(C)cc(Nc2ccc3nc(C)cc(N)c3c2)n1 (configuration not stated) ?
[A] 0.106

[Q] Could you tell me which growth inhibition by drug plus 177Lu-lilotomab satetraxetan is on file for COc1ccc(/C=C\c2cc(OC)c(OC)c(OC)c2)cc1O ?
[A] 0.978

[Q] Could you tell me which growth inhibition by drug plus 177Lu-lilotomab satetraxetan is on file for OCCn1cc(-c2cnc3nnn(Cc4ccc5ncccc5c4)c3n2)cn1 ?
[A] 0.043

[Q] Could you tell me which growth inhibition by drug plus 177Lu-lilotomab satetraxetan is on file for CCC(CC)CC1(C(=O)Nc2ccccc2SC(=O)C(C)C)CCCCC1 ?
[A] 0.0745

[Q] Could you tell me which growth inhibition by drug plus 177Lu-lilotomab satetraxetan is on file for NC(=O)Nc1sc(-c2ccc(F)cc2)cc1C(N)=O ?
[A] 0.0728

[Q] Could you tell me which growth inhibition by drug plus 177Lu-lilotomab satetraxetan is on file for CC1(COc2ccc3c(c2)ncn3-c2ccc3cccc(N4CCC(N)CC4)c3n2)COC1 ?
[A] 0.118

Hello, the source for this data is the supplement of paper PMC6897291, in case you need it.
